Task for the reader: assign each of the following binders its reported kon.
molecular target: T1, AFP158/HLA-A*02:01 complex (human); assay: SPR, scFv-mIgG2aFc from supernatant captured, complex as analyte
T1 construct: biotinylated on the BSP by BirA for ELISA and panning; also called biotinylated AFP158/HLA-A*02:01 complex; Bio-AFP158
One number for each entry, in M⁻¹ s⁻¹.

Observe how each entry below is paired with its result.
>>> value_reported("AS179723 VL1VH1 scFv-mIgG2aFc (Fc fusion, not shown: a dimerising Fc or GST) scFv: QSVLTQPPSASGTPGQRVTISCTGSSNNIGGNYVNWYQQLPGTAPKLLIYDNKNRPSGVPDRFSGSKSGTSASLAISGLQSEDEADYYCASWDDSLSAVVFGGGTKLTVLGGGGSGGGGSGGGGSEVQLVESGGGLVQPGGSLRLSCAASGFTFLNYAMSWVRQAPGKGLEWVSSNSGAGSTYYSDSVKGRFTISRDNSKNTLYLQMNSLRAEDTAVYYCAKGTNVGSWSSLHYWGQGTLVTVSS")
98000
>>> value_reported("AS179723 VL1VH1g1 scFv-mIgG2aFc (Fc fusion, not shown: a dimerising Fc or GST) scFv: QSVLTQPPSASGTPGQRVTISCTGSSNNIGGNYVNWYQQLPGTAPKLLIYDNKNRPSGVPDRFSGSKSGTSASLAISGLQSEDEADYYCASWDDSLSAVVFGGGTKLTVLGGGGSGGGGSGGGGSEVQLVESGGGLVQPGGSLRLSCAASGFTFLNYAMSWVRQAPGKGLEWVSSNSGAGSTYYADSVKGRFTISRDNSKNTLYLQMNSLRAEDTAVYYCAKGTNVGSWSSLHYWGQGTLVTVSS")
99000

Next up:
Record request: kon value, item AS179723 VL1g1VH1 scFv-mIgG2aFc (Fc fusion, not shown: a dimerising Fc or GST) scFv: QSVLTQPPSASGTPGQRVTISCSGSSNNIGGNYVNWYQQLPGTAPKLLIYDNKNRPSGVPDRFSGSKSGTSASLAISGLQSEDEADYYCASWDDSLSAVVFGGGTKLTVLGGGGSGGGGSGGGGSEVQLVESGGGLVQPGGSLRLSCAASGFTFLNYAMSWVRQAPGKGLEWVSSNSGAGSTYYSDSVKGRFTISRDNSKNTLYLQMNSLRAEDTAVYYCAKGTNVGSWSSLHYWGQGTLVTVSS
93000
